Data provenance is patent US6825209B2.

System: CB1 receptor (Rattus norvegicus)
Construct: Whole rat brains or dissected regions from live CD rats; tissue Charles River or Pel-Freez Biologicals; host or cells: whole rat brain (CD rats), P2 membrane
Assay protocol: Radioligand displacement in whole rat brain (CB1) membrane preparations
Assay type: binding
Setup conditions: read-out: Ki, displacement of 3H-SR141716A; whole rat brain membranes; radioligand 3H-SR141716A; Tables 1 and 2
Ki values by entry
# number only, unit nM dropped from output

// known answers, use as guide
1) CCOC(=O)c1nn(-c2ccc(Cl)cc2Cl)c(-c2ccc(Cl)cc2)c1C : 28.9
2) Cc1c(C(=O)NC2CCCCC2)nn(-c2ccc(Cl)cc2Cl)c1-c1ccc(Cl)cc1 : 1.07
3) Cc1c(C(=O)NC(C)C)nn(-c2ccc(Cl)cc2Cl)c1-c1ccc(Cl)cc1 : 12.9

Lookup: Ki / CB1 receptor (Rattus norvegicus) / Cc1c(C(=O)NN2CCOCC2)nn(-c2ccc(Cl)cc2Cl)c1-c1ccc(Cl)cc1 [MF9725-33D]
21

Give the reported Ki for `Cc1c(C(=O)NCCCO)nn(-c2ccc(Cl)cc2Cl)c1-c1ccc(Cl)cc1` (system: CB1 receptor (Rattus norvegicus)).
156

Query the reported Ki for CB1 receptor (Rattus norvegicus); item: `Cc1c(C(=O)NO)nn(-c2ccc(Cl)cc2Cl)c1-c1ccc(Cl)cc1`
1560

====

System: CB1 receptor (Rattus norvegicus, UniProt P20272)
Construct: Whole rat brains or dissected regions from live CD rats; tissue Charles River or Pel-Freez Biologicals; host or cells: whole rat brain (CD rats), P2 membrane
Assay protocol: Radioligand displacement in whole rat brain (CB1) membrane preparations
Assay type: binding
Setup conditions: Ki, displacement of 3H-SR141716A, whole rat brain; 3H-SR141716A; Table 4, parallel synthesis analogs, n = 1, concentration assumes 100% yield
Metric: Ki (nM)
Only the number, expressed in nM, is required.

1. Cc1c(C(=O)NC(C)Cc2ccc(Cl)cc2)nn(-c2ccc(Cl)cc2Cl)c1-c1ccc(Cl)cc1 (stereo not shown) : 2.7

I'd like to know its Ki. The molecule in question is Cc1c(C(=O)NC(C)CCC(C)C)nn(-c2ccc(Cl)cc2Cl)c1-c1ccc(Cl)cc1 (stereo not shown)
2.81

Entry `COc1ccc(NC(=O)c2nn(-c3ccc(Cl)cc3Cl)c(-c3ccc(Cl)cc3)c2C)cc1` has what Ki?
11.8

====

System: G-protein-linked cannabinoid receptors (Rattus norvegicus)
Construct: tissue Charles River or Pel-Freez Biologicals; host or cells: whole rat brain crude membrane homogenate
Sequence (P20272 whole entry): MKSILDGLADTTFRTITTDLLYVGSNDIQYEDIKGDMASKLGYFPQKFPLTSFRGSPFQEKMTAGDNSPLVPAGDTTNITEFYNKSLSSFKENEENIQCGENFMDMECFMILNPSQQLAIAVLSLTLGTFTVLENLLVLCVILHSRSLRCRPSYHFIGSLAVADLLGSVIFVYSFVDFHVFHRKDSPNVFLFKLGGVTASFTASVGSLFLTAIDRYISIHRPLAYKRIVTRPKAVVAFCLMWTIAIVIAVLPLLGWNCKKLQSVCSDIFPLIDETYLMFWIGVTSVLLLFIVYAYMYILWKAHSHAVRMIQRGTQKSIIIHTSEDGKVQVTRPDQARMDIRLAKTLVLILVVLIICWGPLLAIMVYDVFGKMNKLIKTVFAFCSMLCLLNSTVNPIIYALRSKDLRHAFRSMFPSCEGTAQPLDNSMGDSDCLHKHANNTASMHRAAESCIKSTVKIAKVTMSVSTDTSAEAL
Assay protocol: GTP-γ-[35S] binding in whole rat brain
Assay type: biochemical
Setup conditions: whole rat brain membranes; effects reported as percent change from basal; read-out: Emax, GTP-γ-[35S] in Whole Rat Brain
Response field label takes 1 (yes) when Emax is strictly below -50% and 0 (no) in all other cases.

1. Cc1c(C(=O)NC(C)C)nn(-c2ccc(Cl)cc2Cl)c1-c1ccc(Cl)cc1 [MF9725-65-11] : 0 (no)
2. Cc1c(C(=O)NN)nn(-c2ccc(Cl)cc2Cl)c1-c1ccc(Cl)cc1 [MF9879-34-8] : 1 (yes)
3. CCNC(=O)c1nn(-c2ccc(Cl)cc2Cl)c(-c2ccc(Cl)cc2)c1C [MF9725-54C] : 0 (no)
4. CCCCCCNC(=O)c1nn(-c2ccc(Cl)cc2Cl)c(-c2ccc(Cl)cc2)c1C [MF9725-132-25] : 0 (no)

Below: the item to evaluate.
Problem: For the compound Cc1c(C(=O)NCCCO)nn(-c2ccc(Cl)cc2Cl)c1-c1ccc(Cl)cc1 [MF9725-94-31] , is Emax under -50%?
1 (yes)
